System: Saccharomyces cerevisiae
Test: protein stability index of tFT-peptide fusion (C-terminal peptide) (PSI (0-1 scale)); higher = more stable (slower turnover)
Settings: genetic background: wild type; temperature: 30 C
Some sequences, each annotated with its measured protein stability index.

| sequence-data | protein stability index |
| --- | --- |
| RSSKCRGQKGLG | 0.687 |
| ACYEYRPSPASC | 0.728 |
| PPLLLTSLMLLP | 0.655 |
| SQCGSLQIGRHL | 0.714 |
| FSPSPPPPPFPL | 0.659 |
| TRGRGLSGGRFF | 0.658 |
| ELRPSTTPLHPS | 0.683 |
| AIILGPPIGWTK | 0.757 |
| VWVAGGVLWVLG | 0.543 |
| SSRPLSPQSLRL | 0.553 |
| VSLLIPVGVYPR | 0.667 |
| VYSRESMTGPVK | 0.7 |
| PVPPRVNLLRVS | 0.396 |
| LSHLILPPSSPS | 0.677 |
| CPDSFARSAVLS | 0.673 |
| RKRKEKSLKAKL | 0.784 |
| YIKAPCMRQSGG | 0.704 |
| GWRVSQVLGGDR | 0.741 |
| CVLFSGLSVDGC | 0.721 |

----------
System: Saccharomyces cerevisiae
Assay: protein stability index of tFT-peptide fusion (C-terminal peptide) (PSI (0-1 scale)); higher = more stable (slower turnover)
Conditions: genetic background: cdc34-1; temperature: 37 C
reported-metric: protein stability index

| sequence-data | reported-metric | data-value |
| --- | --- | --- |
| CLLSRYRVFFLG | protein stability index | 0.629 |
| VVPVGLYSVILV | protein stability index | 0.427 |
| NENQIKVIMLLV | protein stability index | 0.496 |
| GGHGGRRRKGVG | protein stability index | 0.36 |
| PVWLSFHFFLCA | protein stability index | 0.426 |
| SWVVLVSFLSWR | protein stability index | 0.256 |
| FFRFNCVFWLFL | protein stability index | 0.509 |
| SARSYLTERLLA | protein stability index | 0.625 |
| LFVFVISSSSFP | protein stability index | 0.442 |
| WGIPRRPTLFIP | protein stability index | 0.65 |
| LFMRGEDEMFSV | protein stability index | 0.722 |
| NDKGKKTKIKIV | protein stability index | 0.659 |
| VLAFFPLFFFLS | protein stability index | 0.434 |
| FYFRSSFFTICF | protein stability index | 0.36 |
| LVRDEVLKVKLV | protein stability index | 0.643 |
| CFVPFFLPLCAF | protein stability index | 0.0255 |
| FQPLELFFVCVF | protein stability index | 0.0866 |
| FVSVAGFIVVVV | protein stability index | 0.47 |
| SGMLVYFGTVCY | protein stability index | 0.502 |

----------
System: Saccharomyces cerevisiae
Assay: protein stability index of tFT-peptide fusion (C-terminal peptide) (PSI (0-1 scale)); higher = more stable (slower turnover)
Conditions: genetic background: wild type; temperature: 30 C
Entry flag: criterion met if protein stability index reaches 0.7; criterion not met if it does not.

| sequence-data | category |
| --- | --- |
| VSIVTLSLSNFA | criterion not met |
| FTRWLVYCTPLC | criterion not met |
| NIKEKRNKKKRR | criterion not met |
| PPLTVRPFPFRV | criterion not met |
| AGGRGGGLGLWC | criterion met |
| LCQWLIEFTVLF | criterion not met |
| FVVGGGALGCYA | criterion not met |
| VVMTAVEGMWDG | criterion not met |
| SPSPPLPSPRPP | criterion not met |
| FPPFALLLIIND | criterion not met |
| PPPPPPLSSPFP | criterion not met |
| DKHGELFIVCKV | criterion not met |
| IGTSGFFSSQAS | criterion met |
| SSWWGARVARRG | criterion met |
| PHLPPPPDPPRP | criterion not met |
| PNPPYFPSPGRS | criterion met |
| ITTVRGALLARY | criterion not met |
| GLGGRGGAVGEW | criterion not met |
| VLAGLTWQIAEL | criterion not met |
| LFVFVISSSSFP | criterion not met |
| LFLLALFPPPAS | criterion met |
| GRRLGREWGDAP | criterion met |
| EVVGILSSVNIA | criterion not met |
| VCPWGYCSEWGF | criterion met |
| VLAFFPLFFFLS | criterion not met |

----------
# protein stability index per record follows
Test system: Saccharomyces cerevisiae
Test: protein stability index of tFT-peptide fusion in deletion strain of DOA10 (PSI (0-1 scale)); higher = more stable (slower turnover)

| sequence-data | protein stability index |
| --- | --- |
| CLVSLPILLFFRK | 0.57 |
| GLYMCSLGCWFR | 0.658 |
| RVTRLVAIYFRI | 0.394 |
| RSLRVWLPLYFR | 0.693 |
| AITLPMCPKLLR | 0.671 |
| GLYMCSVGCWGR | 0.659 |
| GLYMCSVGCQFR | 0.647 |
| CLQSLPILLFFR | 0.631 |
| AITLPMCELLLR | 0.676 |
| AITLPMCFLLLR | 0.62 |
| CLVSLPILIFFR | 0.53 |
| AIYLPMCPLLLR | 0.617 |
| AITLPMCPLVLR | 0.646 |
| GLYMCSVGCWFR | 0.629 |
| RSLRVLLPLYFW | 0.589 |
| CLVSLPILLFFD | 0.583 |
| AITLPMCPLLRR | 0.717 |
| CLVSWPILLFFR | 0.595 |
| RSLRVLMPLYFR | 0.697 |

----------
Here the recorded protein stability index is given for each entry.
Test system: Saccharomyces cerevisiae
Assay: protein stability index of tFT-peptide fusion (C-terminal peptide) (PSI (0-1 scale)); higher = more stable (slower turnover)
Settings: genetic background: wild type; temperature: 30 C

| sequence-data | protein stability index |
| --- | --- |
| GLQFHFKAEHKD [PHO86 C-terminal 12 aa] | 0.686 |
| VKWKVLCDLGWT [YIL047C-A C-terminal 12 aa] | 0.708 |
| SSNEDKKGMCKL [IDP3 C-terminal 12 aa] | 0.901 |
| NLVASKQLSTYK [RAV2 C-terminal 12 aa] | 0.641 |

----------
System: Saccharomyces cerevisiae
Experiment: protein stability index of tFT-peptide fusion (C-terminal peptide) (PSI (0-1 scale)); higher = more stable (slower turnover)
Settings: genetic background: wild type; temperature: 30 C
Entries annotated with measured protein stability index
reported-metric: protein stability index

| sequence-data | data-value |
| --- | --- |
| RAEVAALAAENK [PFK1 C-terminal 12 aa] | 0.661 |
| GGLSDIGKNTSN [HUG1 C-terminal 12 aa] | 0.684 |
| IAEIASAVDKYS [MHT1 C-terminal 12 aa] | 0.726 |
| LEKSTNPIKKNN [VOA1 C-terminal 12 aa] | 0.765 |
| PLRLLIRPVGEL [YOR248W C-terminal 12 aa] | 0.673 |
| RQYAGCKVNVGK [NUS1 C-terminal 12 aa] | 0.705 |
| GKYNIKVKLNFI [VAR1 C-terminal 12 aa] | 0.69 |
| AMDHKFFKTKFE [CKA2 C-terminal 12 aa] | 0.708 |
| KSEEAKKRTSLY [YBR124W C-terminal 12 aa] | 0.679 |
| LLLTILLFYPPY [YBL109W C-terminal 12 aa] | 0.318 |
| SSNTVYDNILVT [YDR034C-A C-terminal 12 aa] | 0.724 |
| WLRKWLSTFVHQ [YNL018C C-terminal 12 aa] | 0.23 |
| AFKGHDNSDDKA [RIB2 C-terminal 12 aa] | 0.666 |
| GQPPAPFRLRSD [SDS3 C-terminal 12 aa] | 0.709 |
| DMLYDELMKTME [KSS1 C-terminal 12 aa] | 0.666 |
| VKYSRIIPPDIR [SUM1 C-terminal 12 aa] | 0.69 |
| FVLKTLNMNVTN [OST1 C-terminal 12 aa] | 0.668 |
| FFPFITIIFFHS [YCR024C-B C-terminal 12 aa] | 0.299 |
| SGGVLDSGDVSL [YGR182C C-terminal 12 aa] | 0.661 |
| VDKLAGVRVLPV [GOT1 C-terminal 12 aa] | 0.704 |
| TSSQKIYHTSNK [IPK1 C-terminal 12 aa] | 0.672 |
| KMDKRAKNSDSA [RPL8A C-terminal 12 aa] | 0.689 |
| GATDTSCYKERG [MRPL27 C-terminal 12 aa] | 0.702 |
| NTSGQKPNEYNY [APA1 C-terminal 12 aa] | 0.698 |
| FFMSDMNLSKEG [ATG13 C-terminal 12 aa] | 0.654 |
